# Test system: LXRb:RXRa (NR concentration 270 nM, RXRa partner concentration 90 nM)
# test.details: PBM binding z-score (relative to random genomic background probes); higher = stronger binding; sequences stand for … in GC…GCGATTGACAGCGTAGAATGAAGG
# Lookup of reported PBM binding z-score keyed by entry
measured.metric: PBM binding z-score

* CAAACTAGGTCAAAGGTCAAACTCGAGCCAACCA | 7.4
* TCGAGAAGGTTACGGGGGCATTCAGGGATGAAGA | 5.72
* AGTCATAGTTCACTAGGTAACGTAAGATTCAGCT | 1.11
* CTATGTAGGTTAAGGGGGTCATTCCGTTTGAAAG | 6.22
* CCTACTGGGCCATCAGGTGATTGATATCAACGTT | -0.438
* ATCGAAACGTCGTGAGGTGAGTATACAGAAAGGC | -0.359
